Reference for the values: ChEMBL document CHEMBL1765016

Biological target: Human immunodeficiency virus type 1 reverse transcriptase (Human immunodeficiency virus 1, UniProt Q72547, Y181I)
Test: Inhibition of HIV1 reverse transcriptase Y181I mutant expressed in Escherichia coli assessed as incorporation of [3H]dTTP into poly(rA)/oligo(dT) by scintillation counting
measured.quantity: IC50

Field: example entries. Status: answers known.
structure_smiles_string=Cc1cc(C)cc(S(=O)(=O)c2c(C(=O)NCCN3CCOCC3)[nH]c3ccc([N+](=O)[O-])cc23)c1 measured_quantity=IC50 test_value="> 40 µM"
structure_smiles_string=Cc1cc(C)cc(S(=O)(=O)c2c(C(=O)NCCN3CCOCC3)[nH]c3ccc(Cl)c(F)c23)c1 measured_quantity=IC50 test_value="> 40 µM"
structure_smiles_string=Cc1cc(C)cc(S(=O)(=O)c2c(C(=O)NCN3CCCC3)[nH]c3ccc(Cl)cc23)c1 measured_quantity=IC50 test_value="0.442 µM"
structure_smiles_string=Cc1cc(C)cc(S(=O)(=O)c2c(C(=O)NCCn3cccc3)[nH]c3ccc(Cl)cc23)c1 measured_quantity=IC50 test_value="> 40 µM"
structure_smiles_string=Cc1cc(C)cc(S(=O)(=O)c2c(C(=O)NCCN3CCCC3)[nH]c3ccc(Cl)c(F)c23)c1 measured_quantity=IC50 test_value="> 40 µM"
structure_smiles_string=Cc1cc(C)cc(S(=O)(=O)c2c(C(=O)NCCN3CCOCC3)[nH]c3ccc(Br)cc23)c1 measured_quantity=IC50 test_value="> 40 µM"

For every item in the list below, what is its measured IC50?
1. Cc1cc(C)cc(S(=O)(=O)c2c(C(=O)NCN3CCCCC3)[nH]c3ccc([N+](=O)[O-])cc23)c1
2. Cc1cc(C)cc(S(=O)(=O)c2c(C(=O)NCCN3CCCC3)[nH]c3ccc([N+](=O)[O-])cc23)c1
3. Cc1cc(C)cc(S(=O)(=O)c2c(C(=O)NCCN3CCCC3)[nH]c3ccc(Cl)cc23)c1

1: 0.999 µM; 2: > 40 µM; 3: > 40 µM

For every item in the list below, what is its measured IC50?
1. Cc1cc(C)cc(S(=O)(=O)c2c(C(=O)NCN3CCOCC3)[nH]c3ccc([N+](=O)[O-])cc23)c1
2. Cc1cc(C)cc(S(=O)(=O)c2c(C(=O)NCCOc3ccccc3)[nH]c3ccc(Cl)c(F)c23)c1

1: 1.6 µM; 2: > 40 µM

For every item in the list below, what is its measured IC50?
1. Cc1cc(C)cc(S(=O)(=O)c2c(C(=O)NCCN3CCCC3)[nH]c3ccc(Br)cc23)c1
2. Cc1cc(C)cc(S(=O)(=O)c2c(C(=O)NCc3ccccc3)[nH]c3ccc(Br)cc23)c1

1: > 40 µM; 2: > 40 µM
